- Target or test system: T1, recombinant murine midkine (muMK) (murine, UniProt P12025 23-140)
- T1 construct: also called murine MK; Murine MK
- T1 sequence (looked up): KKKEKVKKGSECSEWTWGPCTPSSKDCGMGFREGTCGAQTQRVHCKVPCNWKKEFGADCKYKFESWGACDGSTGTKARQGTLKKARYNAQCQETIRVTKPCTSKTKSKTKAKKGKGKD
- Experiment description: ELISA by the methods of Example 2 (printed as KD)
Property label: pKd
The quantity pKd is defined as the negative base-10 logarithm of the molar concentration.

Q) Report pKd, nothing else, for this binder: IP14-H6L3 (antibody, V domains shown, also called hIP14-H6L3; Hv6 Lv3) VH: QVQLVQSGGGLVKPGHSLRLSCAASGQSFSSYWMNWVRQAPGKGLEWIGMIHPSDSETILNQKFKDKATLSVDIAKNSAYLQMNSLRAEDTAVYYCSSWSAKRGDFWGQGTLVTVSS VL: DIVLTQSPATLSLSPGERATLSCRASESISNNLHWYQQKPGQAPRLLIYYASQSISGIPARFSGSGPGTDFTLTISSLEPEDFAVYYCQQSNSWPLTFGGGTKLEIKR
A) 10.32

Q) Report pKd, nothing else, for this binder: murine IP14 precursor antibody (antibody, V domains shown, Murine monoclonal antibody; also called mIP14; mAb IP14) VH: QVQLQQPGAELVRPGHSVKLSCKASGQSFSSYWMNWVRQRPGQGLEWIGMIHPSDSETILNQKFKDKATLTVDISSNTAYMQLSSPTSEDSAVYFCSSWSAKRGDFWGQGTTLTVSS VL: DIVLTQSPATLSVTPGDSVNLSCRASESISNNLHWYQQKSHESPRLLIKYASQSISGIPSRFSGSGSGTDFNLSVNSVETEDFGMYFCQQSNSWPLTFGAGTKLELKR
A) 9.78

Q) Report pKd, nothing else, for this binder: IP14-H5L8 (antibody, V domains shown, also called hIP14-H5L8; Hv5 Lv8) VH: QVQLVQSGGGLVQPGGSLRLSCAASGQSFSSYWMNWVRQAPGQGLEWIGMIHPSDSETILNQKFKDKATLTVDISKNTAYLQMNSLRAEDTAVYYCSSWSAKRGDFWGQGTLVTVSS VL: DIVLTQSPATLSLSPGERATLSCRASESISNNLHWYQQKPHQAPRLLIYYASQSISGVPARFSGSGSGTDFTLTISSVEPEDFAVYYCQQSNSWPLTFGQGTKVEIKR
A) 10.30
